target: human cloned 5-HT2A receptor, expressed in L929 cells (Homo sapiens, UniProt P28223); construct: expressed in transfected cells; host or cells: L929 cells; test: In vitro radioligand binding affinity for 5-HT2A receptor ([125I]R91150)
Sequence (P28223 whole entry): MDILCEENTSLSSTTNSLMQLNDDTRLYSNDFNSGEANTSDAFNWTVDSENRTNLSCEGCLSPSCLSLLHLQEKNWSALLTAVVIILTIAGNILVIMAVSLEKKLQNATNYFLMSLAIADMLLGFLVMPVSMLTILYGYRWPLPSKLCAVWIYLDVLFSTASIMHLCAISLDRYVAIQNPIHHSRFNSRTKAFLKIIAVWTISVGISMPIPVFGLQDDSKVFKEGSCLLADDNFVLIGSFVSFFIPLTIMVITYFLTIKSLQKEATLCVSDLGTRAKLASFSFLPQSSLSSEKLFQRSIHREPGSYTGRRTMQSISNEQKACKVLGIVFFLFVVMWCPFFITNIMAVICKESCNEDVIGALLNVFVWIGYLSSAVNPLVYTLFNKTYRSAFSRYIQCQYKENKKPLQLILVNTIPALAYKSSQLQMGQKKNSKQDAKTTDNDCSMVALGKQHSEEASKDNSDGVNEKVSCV
value_type: IC50 (µM)
Write the answer as a number in µM, unit excluded.

Answered examples (2):
1. CN1CC(=O)N2[C@H](C[C@@H]3c4ccccc4Cc4ccc(F)cc4[C@H]32)C1 = 0.0871
2. CN1CCN2[C@H](C[C@@H]3c4ccccc4Cc4ccc(F)cc4[C@H]32)C1 [14a] = 0.00126

Below: the item to evaluate.
What value of IC50 has been reported for the following molecule? Fc1ccc2c(c1)[C@@H]1[C@H](C[C@@H]3CNC(=S)N31)c1ccccc1C2
0.0851
